molecular target: recombinant CK2 α2β2 (Homo sapiens, UniProt P67870+P68400); construct: made in house; assay: CK2 kinase assay, phosphorylation of synthetic peptides (33P, phosphocellulose filters); format: biochemical; conditions: summary class of level of phosphorylation by CK2 (Table 4)
Sequence (P68400 whole entry): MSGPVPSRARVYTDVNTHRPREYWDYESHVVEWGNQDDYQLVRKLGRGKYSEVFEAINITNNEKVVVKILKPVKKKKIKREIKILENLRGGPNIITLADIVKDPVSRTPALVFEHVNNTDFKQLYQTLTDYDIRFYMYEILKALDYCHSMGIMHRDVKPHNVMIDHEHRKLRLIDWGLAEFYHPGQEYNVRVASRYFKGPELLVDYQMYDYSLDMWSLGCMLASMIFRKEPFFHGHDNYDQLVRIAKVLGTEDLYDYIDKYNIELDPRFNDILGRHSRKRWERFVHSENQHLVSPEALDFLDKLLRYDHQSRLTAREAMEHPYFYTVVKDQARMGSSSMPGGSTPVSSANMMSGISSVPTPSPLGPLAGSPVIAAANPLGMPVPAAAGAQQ
Sequence (P67870 whole entry partner): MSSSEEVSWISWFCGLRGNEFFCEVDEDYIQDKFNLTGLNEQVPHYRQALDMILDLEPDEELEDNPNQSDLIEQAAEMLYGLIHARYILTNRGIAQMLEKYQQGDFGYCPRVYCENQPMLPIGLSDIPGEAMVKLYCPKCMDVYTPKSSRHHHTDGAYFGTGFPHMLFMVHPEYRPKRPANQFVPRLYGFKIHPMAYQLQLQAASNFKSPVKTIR

>  <SUBSTANCE>
R3GSPSDSSATEEMEV [Akt2TA, Akt2 peptide with T at n+1 replaced by A]

>  <Phosphorylation by CK2>
+

$$$$
>  <SUBSTANCE>
R3GSPSDNSGAEEMEV [Akt1(wt)]

>  <Phosphorylation by CK2>
+

$$$$
>  <SUBSTANCE>
R3GSPSDSSTTEEMEV [Akt2(wt)]

>  <Phosphorylation by CK2>
- (or not (-))

$$$$
>  <SUBSTANCE>
R3GSPSDNSTTEEMEV [Akt2N, Akt2 peptide with S at n-1 replaced by N]

>  <Phosphorylation by CK2>
- (or not (-))

$$$$
>  <SUBSTANCE>
R3GSPSDNSTAEEMEV [Akt1GT, Akt1 peptide with G at n+1 replaced by T]

>  <Phosphorylation by CK2>
- (or not (-))

$$$$
>  <SUBSTANCE>
R3GSPSDSSTAEEMEV [Akt2A, Akt2 peptide with T at n+2 replaced by A]

>  <Phosphorylation by CK2>
- (or not (-))

$$$$
>  <SUBSTANCE>
R3GSPSDSSGTEEMEV [Akt2TG, Akt2 peptide with T at n+1 replaced by G]

>  <Phosphorylation by CK2>
+

$$$$
>  <SUBSTANCE>
R3GSPSDSSSTEEMEV [Akt2TS, Akt2 peptide with T at n+1 replaced by S]

>  <Phosphorylation by CK2>
+

$$$$
